# TESTED_TARGET: recombinant human CYP3A4 (Homo sapiens)
# Sequence (P08684 whole entry): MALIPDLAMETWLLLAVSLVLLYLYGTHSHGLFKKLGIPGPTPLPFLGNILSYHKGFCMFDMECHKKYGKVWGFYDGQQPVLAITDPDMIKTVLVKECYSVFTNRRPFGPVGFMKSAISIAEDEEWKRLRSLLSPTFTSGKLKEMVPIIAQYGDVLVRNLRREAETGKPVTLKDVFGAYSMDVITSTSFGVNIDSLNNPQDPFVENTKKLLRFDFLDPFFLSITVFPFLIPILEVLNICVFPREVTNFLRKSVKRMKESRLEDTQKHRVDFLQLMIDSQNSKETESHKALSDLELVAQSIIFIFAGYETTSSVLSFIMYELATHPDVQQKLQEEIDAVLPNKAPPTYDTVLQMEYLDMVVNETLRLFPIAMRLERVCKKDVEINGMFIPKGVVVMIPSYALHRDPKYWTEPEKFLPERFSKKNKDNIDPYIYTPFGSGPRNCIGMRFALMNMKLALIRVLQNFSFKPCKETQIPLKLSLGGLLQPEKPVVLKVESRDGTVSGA
# PROTOCOL_DESCRIPTION: P450-Glo bioluminescent CYP450 inhibition assay
# Format: in vitro ADME
# RUN_CONDITIONS: CYP3A4 IC50, median (range); unit of the reference inhibitor
VALUE_KIND: IC50 (µM)

- COMPOUND: "CCC/C=C1\\OC(=O)C2=C1CCC=C2 [Ligustilide, ligustilide]"
  VALUE_KIND: "IC50"
  VALUE_OBSERVED: 39.8

* * *

# TESTED_TARGET: recombinant human CYP2C9 (Homo sapiens)
# Sequence (P11712 whole entry): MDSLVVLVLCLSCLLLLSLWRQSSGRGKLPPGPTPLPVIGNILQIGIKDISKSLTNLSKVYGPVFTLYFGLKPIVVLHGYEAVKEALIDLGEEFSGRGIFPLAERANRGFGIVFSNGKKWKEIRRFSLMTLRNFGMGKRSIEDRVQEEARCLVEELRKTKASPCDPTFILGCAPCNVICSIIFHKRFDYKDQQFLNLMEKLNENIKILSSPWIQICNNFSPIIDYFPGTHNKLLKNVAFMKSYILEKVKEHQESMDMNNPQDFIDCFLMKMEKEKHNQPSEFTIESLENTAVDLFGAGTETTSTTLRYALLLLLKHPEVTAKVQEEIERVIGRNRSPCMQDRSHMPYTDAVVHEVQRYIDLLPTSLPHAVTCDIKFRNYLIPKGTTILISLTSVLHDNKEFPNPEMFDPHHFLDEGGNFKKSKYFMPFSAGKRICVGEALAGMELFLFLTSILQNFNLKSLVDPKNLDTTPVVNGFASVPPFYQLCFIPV
# PROTOCOL_DESCRIPTION: P450-Glo bioluminescent CYP450 inhibition assay
# RUN_CONDITIONS: CYP2C9 IC50, median (range); unit of the reference inhibitor
pIC50: −log10 of the molar value.

- COMPOUND: "CCC/C=C1\\OC(=O)C2=C1CCC=C2 [Ligustilide, ligustilide]"
  TESTED_TARGET: "recombinant human CYP2C9 (Homo sapiens)"
  pIC50: 3.94
